- TEST_SYSTEM: Alpha-2C adrenergic receptor (Homo sapiens) (UniProt P18825)
- Sequence (P18825 whole entry, looked up): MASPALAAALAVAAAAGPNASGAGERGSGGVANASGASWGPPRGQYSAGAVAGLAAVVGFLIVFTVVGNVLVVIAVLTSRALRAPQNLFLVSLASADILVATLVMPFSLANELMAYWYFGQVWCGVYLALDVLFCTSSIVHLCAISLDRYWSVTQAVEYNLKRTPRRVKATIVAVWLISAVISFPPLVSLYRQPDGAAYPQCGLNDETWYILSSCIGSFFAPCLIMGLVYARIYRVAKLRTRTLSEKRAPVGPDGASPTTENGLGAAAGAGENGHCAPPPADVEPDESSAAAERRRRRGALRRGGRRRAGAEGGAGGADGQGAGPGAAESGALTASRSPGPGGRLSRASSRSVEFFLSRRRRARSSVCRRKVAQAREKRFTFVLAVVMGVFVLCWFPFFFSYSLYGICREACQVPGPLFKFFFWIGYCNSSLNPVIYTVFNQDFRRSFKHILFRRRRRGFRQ
- METHOD_SUMMARY: modulators of alpha2C/GIRK thallium flux, primary screen, cell-based, HEK293 alpha2C/GIRK1/2 (AID 624);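 further: slope of fluorescence ratio to pre-addition baseline per second over 15 to 24 s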
- PROTOCOL_CONDITIONS: thallium flux BTC fluorescence, at 10 µM, actives lie on both sides
Lab note: cut-off is 0.005. Strictly less in slope is Criterion met. Exactly 0.005 or more is Criterion not met.

slope under 0.005? Item: CCOc1ccc(CCNC(=O)C(O)c2ccccc2)cc1 (configuration not stated)
Criterion not met

Given CCCCn1cnc2c(c1=O)c1nc3ccccc3nc1n2Cc1ccc2c(c1)OCO2 , is recorded slope strictly lower than 0.005?
Criterion not met

# check: slope < 0.005 for CCNC(=O)Nn1c(C)nnc1C
Criterion not met

# check: slope < 0.005 for COc1ccc(-n2c(SCC(N)=O)nc3sc4c(c3c2=O)CCN(C)C4)cc1
Criterion met

Hello, is slope of the following molecule strictly smaller than 0.005? Nc1nonc1-c1noc(-c2ccccc2)n1
Criterion not met

# strict comparison: is reported slope < 0.005? input = CCCCNC(=O)N(C)c1nncnc1C(=O)NC
Criterion not met

Item Cc1ccc2[nH]c3c(NCCN4CCOCC4)ncnc3c2c1 : slope beneath 0.005, strictly?
Criterion met

Please indicate whether the reported slope of CCC1(C)Cc2ccccc2-c2nc(NCCO)n(-c3ccccc3)c(=O)c21 (configuration not stated) is strictly below 0.005.
Criterion not met

Could you please tell me whether slope recorded for C=CCn1c(SCC#N)nc2c(c1=O)C(C)(C)Cc1ccccc1-2 is less than 0.005?
Criterion not met

Criterion: slope strictly below 0.005. Is it met by Nc1ccc(S(=O)(=O)Nc2ccccn2)cc1 ?
Criterion met

Below 0.005 on slope? Entry CC(C)CC(=O)Nc1ncnc2c1C(=O)CC(C)(C)C2
Criterion not met

* * *

Give fluorescence slope for every item shown.
- TEST_SYSTEM: Voltage-gated potassium channel subunit beta-2 (Rattus norvegicus) (UniProt P62483)
- Sequence (P62483 whole entry, looked up): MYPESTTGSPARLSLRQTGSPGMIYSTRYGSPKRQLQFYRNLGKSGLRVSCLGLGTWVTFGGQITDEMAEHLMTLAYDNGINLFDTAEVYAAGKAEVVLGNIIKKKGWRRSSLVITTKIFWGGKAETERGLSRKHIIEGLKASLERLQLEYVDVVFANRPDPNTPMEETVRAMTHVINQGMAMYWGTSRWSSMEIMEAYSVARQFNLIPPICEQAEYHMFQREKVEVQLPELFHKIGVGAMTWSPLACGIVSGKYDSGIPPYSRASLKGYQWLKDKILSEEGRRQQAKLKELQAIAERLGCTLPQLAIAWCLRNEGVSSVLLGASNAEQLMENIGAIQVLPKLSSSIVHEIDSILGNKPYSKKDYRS
- METHOD_SUMMARY: KvBeta enzyme negative modulators, primary screen, biochemical, NADPH fluorescence (AID 622);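 further: slope of raw intensity against log time taken from 70 to 1610 s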
- PROTOCOL_CONDITIONS: recombinant KvBeta, 4-cyanobenzaldehyde reduction, at 10 µM, stronger effect = higher value
Answer with a number only.

Consider the compound COc1ccc(CCn2c(=N)c(C#N)cc3c(=O)n4ccccc4nc32)cc1 and give its recorded fluorescence slope.
-0.447

Look up and report measured fluorescence slope for this entry: Cc1[nH]c2ccc(F)cc2c(=O)c1SC(F)(F)C(F)C(F)(F)F (stereo unspecified)
-0.42

Please supply the value of reported fluorescence slope for the item CCOC(=O)CSc1nc(N(C)C)nc(N(C)C#N)n1
-0.478

Supply fluorescence slope value. Item: CC(=O)N=C(N)Sc1nc2ccccc2[nH]1
-0.462

Please list fluorescence slope recorded for the compound O=C(NCc1cccnc1)/C(=N\O)c1ccccc1
-0.424

Return reported fluorescence slope. Input compound: CCN1CCc2c(C#N)c(N3CCOCC3)nc(NCc3ccccc3)c2C1
-0.484

* * *

- METHOD_SUMMARY: inhibitors of TNFa-induced NFkB p65 translocation, primary screen, imaging, HUVEC, MLSMR starter and 10KST1 sets (AID 438);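 further: compound added about 3h40 before a 20 min TNFalpha stimulation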
- PROTOCOL_CONDITIONS: HUVEC TNFa-induced p65 nuclear translocation; measured here: nuclei count (cytotoxicity indicator), at 2.08 µM
Please use Criterion met whenever cell count is not below 400, and Criterion not met whenever it is.

Confirm if cell count reported for the compound CC1CCN(c2oc(-c3ccccc3Cl)nc2C#N)CC1 is 400 or above.
Criterion met

Assess whether reported cell count for ONC(=Nc1ccccc1)C(=Nc1ccccc1)NO sits at 400 or higher.
Criterion not met

I'd appreciate it if you could say whether CCOC(=O)c1[nH]c2ccc(OC)cc2c1NC(=O)CN1CCN(c2ccccn2)CC1 has cell count at least equal to 400.
Criterion met

Please tell me: is the compound CNC(=O)Nc1cccc(NC(=O)NC)n1 at or over 400 in terms of cell count?
Criterion not met

hey, is cell count for this one >= 400? COc1cc(C)nc(Oc2ccc(OCCOc3ccc(C)cc3)nn2)n1
Criterion met

Could you tell me if the measured cell count of Cc1cccc2c1NC(C)CC2C (configuration not stated) reaches 400 or more?
Criterion met

Does COC(=O)CC1=C(C(=O)OC)C(c2ccc3c(c2Cl)OCO3)C(C#N)=C(N)O1 (configuration not stated) have a reported cell count of at least 400?
Criterion met

Please indicate if the recorded cell count for c1ccc(-c2nc(NCC3CCCO3)c3ccccc3n2)nc1 (configuration not stated) meets or exceeds 400.
Criterion not met

Reported cell count at or above 400? Oc1ccc2c(c1)C1CCCC1(N1CCOCC1)O2 (configuration not stated)
Criterion met

Has Cc1cc(C)n(C(=O)CNC(=O)C2COc3ccccc3O2)n1 (configuration not stated) a recorded cell count greater than or equal to 400?
Criterion met

Decide: is the reported value of cell count for CC(C)C1=C2OC(N)=C(C#N)C(C#N)=C2C(C)CC1 (configuration not stated) equal to or greater than 400?
Criterion not met
